Assay: Quantitative highthroughput screen to assess conditional lethalithy of NOMO1 cells grown in RPMI1640 with dialyzed fetal bovine serum (RPMI+ds) (AID 1963877); further: nearly all actives have a fitted effect of over 30% in size;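 on viability: 100% = DMSO control wells and 0% = empty wells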
Settings: NOMO1 in RPMI+dialyzed FBS viability, ATP luminescence, 48 h; series mostly up to 45.8 µM
Inconclusive results are not listed. Activity calls are given as the source filed them. The call rests on the fitted dose curve; in most records, active means well fitted cell-killing curve with a large enough effect; inconclusive means small, poorly fitted or top-dose-only effect; inactive means flat fitted curve, though single readings scatter.
Parameter call: string, one of label 1 = active, label 0 = inactive

These recorded examples may help you get a feel for the data.
CN(C)CCN(Cc1ccc(Cl)cc1)c1ccccn1 | label 0
NNCCc1ccccc1 | label 0

Query: recorded result category for NC[C@H]1O[C@H](O[C@@H]2[C@@H](O)[C@@H](O[C@H]3O[C@H](CO)[C@@H](O)[C@H](N)[C@@H]3O)[C@H](N)C[C@@H]2N)[C@H](O)[C@@H](O)[C@H]1O in this test
label 0

Query: recorded result category for CCC(=O)O[C@]1(C(=O)CO)CC[C@H]2[C@@H]3CCC4=CC(=O)CC[C@]4(C)[C@@H]3CC[C@@]21C in this test
label 1

Query: recorded result category for O=C(OCC#CCSc1nnc(-c2cccc3ccccc23)o1)c1cc2ccccc2s1 in this test
label 0
